- test: anti-His antibody binders, primary screen, artefact control for SMM control protein annotation, biochemical, small-molecule microarray, 635 nm fluorescence (AID 1128);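 further: score merges feature fluorescence with signal-to-noise for each printed compound spot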
- run conditions: anti-His Alexa647 antibody binding, higher = more signal

| molecule | composite z-score |
| --- | --- |
| COC(=O)[C@H](C)NC(=O)CCC1CC(OC(=O)NCc2ccc3c(c2)OCO3)CC2(CCCC(COC(=O)NCC(c3ccccc3)c3ccccc3)O2)O1 (stereo not given in full) | 1.31 |
| CCOC(=O)[C@H](CC(C)C)NC(=O)CCC1CC(OC(=O)NCCc2ccc(F)cc2)CC2(CCCC(COC(=O)NCCOc3ccccc3)O2)O1 (stereo not given in full) | 0.744 |
| O=C1[C@H]2[C@H]3[C@H](O)[C@H](O)CC(=NOCc4ccccc4)[C@@H]3CC[C@H]2C(=O)N1C[C@@H]1CCCO1 | -0.016 |
| CC[C@@H](c1ccccc1)n1c(=O)n2n(c1=O)[C@H]1[C@H](O)[C@@H]3O[C@@H]3C(=O)[C@H]1CC2 | -0.276 |
| CCC=CCCC(OC(=O)c1ccc(Br)cc1)C1=CCCCC1=O (stereo not given) | 0.164 |
| C[C@@H](c1ccccc1)N1C(=O)[C@H]2[C@H]3[C@H](O)[C@H](O)CC(=NO[C@@H]4O[C@H](CO)[C@@H](O)[C@H](O)[C@H]4O)[C@H]3CC[C@H]2C1=O | 0.746 |
| CCOC(=O)[C@H](Cc1ccccc1)NC(=O)CCC1CC(OC(=O)NCc2cccc3ccccc23)CC2(CCCC(COC(=O)NCCC(C)C)O2)O1 (stereo not given in full) | 0.603 |
| CC(C)CON=C1C[C@@H](O)[C@@H](O)[C@@H]2[C@@H]3C(=O)N(C[C@@H]4CCCO4)C(=O)[C@@H]3CC[C@@H]12 | 0.0488 |
| O=C(C=Cc1ccc2c(c1)OCO2)c1ccc(F)cc1 | 0.877 |
| COc1ccc(COC(=O)NN=C2C[C@@H](O)[C@@H](O)[C@@H]3[C@@H]4C(=O)N(c5ccc(F)cc5F)C(=O)[C@@H]4CC[C@H]23)cc1 | 0.524 |
| CO[C@@H]1C=CCC(=O)N[C@@H](C)C(=O)OC[C@@H](OC)[C@H](C)CCCC(=O)OC[C@H]1C | 2.07 |
| O=C1[C@H]2[C@H]3[C@H](O)[C@H](O)CC(=NO[C@@H]4O[C@H](CO)[C@@H](O)[C@H](O)[C@H]4O)[C@H]3CC[C@H]2C(=O)N1c1cccc(Oc2ccccc2)c1 | 1.25 |
| CC(=O)OC[C@H]1O[C@H](C#Cc2ccccc2)C=C[C@@H]1OC(C)=O | -0.223 |
| CO[C@@H]1COC(=O)[C@@H](C)COC(=O)[C@@H](C)NC(=O)CC=C[C@@H]1C | 0.548 |
| COC(=O)[C@@H]1CC[C@H](C)[C@@H](c2ccc(C)cc2)N1C(=O)c1ccc(C=NO[C@H](C)c2cn([C@@H]3COC[C@H]3O)nn2)cc1 | -0.684 |

---

- Tested on: PRMT1 (protein arginine N-methyltransferase 1)
- test: PRMT1 binders on small-molecule microarrays, primary screen, biochemical, small-molecule microarray, 635 nm fluorescence (AID 1088);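 further: binding of Prmt1 protein to compounds spotted on small-molecule microarray slides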
- run conditions: small-molecule microarray binding, higher = more signal

| compound | composite z-score |
| --- | --- |
| CCOC(=O)[C@H](CC(C)C)NC(=O)CCC1CC(OC(=O)NCc2ccc3c(c2)OCO3)CC2(CCCC(COC(=O)NCc3cccc(C(F)(F)F)c3)O2)O1 (stereo not given in full) | 0.312 |
| CCN1C(=O)[C@H]2[C@H]3[C@H](O)[C@H](O)CC(=O)[C@@H]3CC[C@H]2C1=O | 0.705 |
| CO[C@@H]1COC(=O)CC=C[C@H](C)[C@H](OC)COC(=O)[C@H](C)NC(=O)CC=C[C@H]1C | 1.53 |
| CCOC(=O)[C@H](Cc1ccccc1)NC(=O)CCC1CC(OC(=O)NCc2ccc3c(c2)OCO3)CC2(CCCC(COC(=O)NCCc3ccccc3OC)O2)O1 (stereo not given in full) | 1.49 |
| CC(C)(C)N1C(=O)[C@H]2[C@H]3[C@H](O)[C@H](O)CC(=NO[C@@H]4O[C@H](CO)[C@@H](O)[C@H](O)[C@H]4O)[C@H]3CC[C@H]2C1=O | 0.693 |
| COc1ccc(COC(=O)NN=C2C[C@@H](O)[C@@H](O)[C@@H]3[C@@H]4C(=O)N(C5CCCCC5)C(=O)[C@@H]4CC[C@H]23)cc1 | -0.416 |
| O=C1CCCC=C1C(CCc1ccccc1)OC(=O)c1ccc(Br)cc1 (stereo not given) | -0.429 |
| CCOC(=O)CCN1C(=O)[C@H]2[C@H]3[C@H](O)[C@H](O)CC(=NOCc4ccccc4)[C@H]3CC[C@H]2C1=O | -0.112 |
| COC(=O)CC=C[C@@H](C)[C@@H](C=NO[C@@H]1O[C@H](COC(C)=O)[C@@H](OC(C)=O)[C@H](OC(C)=O)[C@H]1OC(C)=O)OC | 1.18 |
| CC(CCN1CCc2nc(-c3ccccc3)c(-c3ccccc3)cc2C1)=NOC[C@@H](O)COCc1ccco1 | 0.651 |
| CO[C@H]1COC(=O)CC=C[C@@H](C)[C@H](NS(=O)(=O)c2ccc(C)cc2)COC(=O)CCC[C@@H]1C | 1.1 |
| COc1ccc(O[C@H]2C=C[C@@H](c3ccccc3)O[C@@H]2CON=C2[C@H]3CCn4c(=O)n(-c5ccccc5)c(=O)n4[C@H]3[C@H](O)[C@@H]3O[C@H]23)cc1 | 1.3 |
| CC(C)=CCCC(C)=CCON=C1C[C@@H](O)[C@@H](O)[C@@H]2[C@@H]3C(=O)N(c4cccc(Oc5ccccc5)c4)C(=O)[C@@H]3CC[C@@H]12 | 0.355 |
| CSCC[C@@H]1NC(=O)CC=C[C@@H](C)COC(=O)[C@@H](C)COC1=O | 1.21 |
| C#CCCCON=C1[C@H]2CCn3c(=O)n(-c4ccccc4)c(=O)n3[C@H]2[C@H](O)[C@@H]2O[C@H]12 | 0.192 |
